Give inhibition at 1 µM for every item shown.
Target: human serotonin transporter (Homo sapiens, UniProt P31645)
Construct: expressed in transfected cells
Sequence (P31645 whole entry): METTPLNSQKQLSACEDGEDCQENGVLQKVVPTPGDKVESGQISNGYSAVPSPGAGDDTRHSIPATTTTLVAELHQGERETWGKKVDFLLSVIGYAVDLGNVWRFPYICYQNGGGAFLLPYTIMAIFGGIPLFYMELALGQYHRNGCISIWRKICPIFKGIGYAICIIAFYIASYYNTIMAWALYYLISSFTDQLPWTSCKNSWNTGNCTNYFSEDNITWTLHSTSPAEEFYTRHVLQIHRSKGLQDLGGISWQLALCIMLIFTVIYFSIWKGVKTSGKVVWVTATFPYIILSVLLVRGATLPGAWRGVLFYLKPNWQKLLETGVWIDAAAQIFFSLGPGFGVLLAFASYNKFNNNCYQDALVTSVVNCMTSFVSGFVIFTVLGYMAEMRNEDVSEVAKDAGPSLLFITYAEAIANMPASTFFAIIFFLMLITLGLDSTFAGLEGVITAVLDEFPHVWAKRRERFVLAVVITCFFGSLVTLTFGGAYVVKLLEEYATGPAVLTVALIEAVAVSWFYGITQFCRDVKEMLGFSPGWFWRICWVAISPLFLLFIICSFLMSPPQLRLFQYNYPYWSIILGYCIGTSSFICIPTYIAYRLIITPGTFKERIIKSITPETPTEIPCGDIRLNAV
Assay: Inhibitory action on human serotonin transporter ([3H]-5-hydroxytryptamine uptake in CHO cells)
Type: cell-based
Details: CHO, compound 1 μM; relative to inhibitory activity of 10 μM Paroxetine as 100%; read-out: inhibitory rate (%)
Counter-ions that a name gives are not always drawn.
A number alone suffices; assume %.

Consider the molecule O=S(=O)(NC[C@@]1(O)CNCCO[C@@H]1c1ccc(Cl)c(Cl)c1)C(F)F (racemic) [Example 521, monohydrochloride] and give its measured inhibition at 1 µM.
84

Quick one: CO[C@@]1(CNC(C)=O)CNCCO[C@H]1c1ccc(Cl)c(F)c1 (relative stereo) [Example 561]
46

Quick one: COC[C@@H]1OCCNC[C@@H]1c1ccc(Cl)c(Cl)c1 (racemic) [Example 449, monohydrochloride]
53

Quick one: O=C(O)c1cccnc1NC[C@@H]1CNCCO[C@H]1c1ccc(Cl)c(Cl)c1 [Example 176, monohydrochloride]
80

Quick one: O=c1ccccn1C[C@@H]1CNCCO[C@H]1c1ccc(Cl)c(F)c1 [Example 42, monohydrochloride]
87

Quick one: OC[C@@H]1CNCCO[C@@H]1c1ccc(F)c(Cl)c1 (racemic) [Example 278, monohydrochloride]
87

Quick one: CC(=O)N[C@H]1CNCCO[C@@H]1c1ccc(Cl)c(Cl)c1 [Example 240, monohydrochloride]
94

----------
Biological target: human norepinephrine transporter (Homo sapiens, UniProt P23975)
Construct: expressed in transfected cells
Sequence (P23975 whole entry): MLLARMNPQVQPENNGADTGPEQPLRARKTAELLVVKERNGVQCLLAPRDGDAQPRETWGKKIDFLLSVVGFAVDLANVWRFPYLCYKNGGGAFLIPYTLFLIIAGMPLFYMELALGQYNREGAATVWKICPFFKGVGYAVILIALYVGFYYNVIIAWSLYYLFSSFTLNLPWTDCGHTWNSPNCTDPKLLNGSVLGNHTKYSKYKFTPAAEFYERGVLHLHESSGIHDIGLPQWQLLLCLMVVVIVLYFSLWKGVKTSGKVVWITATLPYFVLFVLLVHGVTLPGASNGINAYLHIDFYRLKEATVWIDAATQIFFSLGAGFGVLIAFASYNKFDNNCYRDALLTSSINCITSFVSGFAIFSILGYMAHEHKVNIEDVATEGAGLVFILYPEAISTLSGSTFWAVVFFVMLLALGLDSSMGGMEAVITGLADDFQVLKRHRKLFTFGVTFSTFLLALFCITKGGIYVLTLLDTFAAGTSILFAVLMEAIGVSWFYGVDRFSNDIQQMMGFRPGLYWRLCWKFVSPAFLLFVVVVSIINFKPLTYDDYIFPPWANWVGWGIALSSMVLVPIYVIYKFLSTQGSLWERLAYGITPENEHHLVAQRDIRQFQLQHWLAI
Assay: Inhibitory action on human norepinephrine transporter ([3H]-norepinephrine uptake in CHO cells)
Type: cell-based
Conditions: CHO, compound 1 μM; relative to inhibitory activity of 10 μM DMI as 100%; read-out: inhibitory rate (%)
Where a name gives a salt, the structure may show the parent alone.
Give inhibition at 1 µM for every item shown.
A number alone suffices; assume %.

Consider the compound CO[C@]1(CNS(C)(=O)=O)CNCCO[C@@H]1c1ccc(Cl)c(Cl)c1 (racemic) [Example 523, monohydrochloride] and give its measured inhibition at 1 µM.
91

Quick one: CC(=O)N(C)C[C@@H]1CNCCO[C@H]1c1ccc(Cl)c(Cl)c1 [Example 99, monohydrochloride]
98

Quick one: OC[C@@H]1OCCNC[C@@H]1c1ccc(Cl)c(Cl)c1 [Example 448, monohydrochloride]
88

Quick one: O=C(O)c1cccn(C[C@@H]2CNCCO[C@H]2c2ccc(Cl)c(F)c2)c1=O [Example 44, monohydrochloride]
102

Quick one: NC(=O)N[C@@H]1CNCCO[C@H]1c1ccc(Cl)c(Cl)c1 [Example 262, monohydrochloride]
98

Quick one: O=C1CN([C@@H]2CNCCO[C@H]2c2ccc(Cl)c(Cl)c2)C(=O)N1 [Example 276, monohydrochloride]
103

Quick one: OC[C@@H]1CNCCO[C@@H]1c1ccc(F)c(Cl)c1 (racemic) [Example 278, monohydrochloride]
91

----------
Molecular target: human dopamine transporter (Homo sapiens)
Construct: expressed in transfected cells
Sequence (Q01959 whole entry): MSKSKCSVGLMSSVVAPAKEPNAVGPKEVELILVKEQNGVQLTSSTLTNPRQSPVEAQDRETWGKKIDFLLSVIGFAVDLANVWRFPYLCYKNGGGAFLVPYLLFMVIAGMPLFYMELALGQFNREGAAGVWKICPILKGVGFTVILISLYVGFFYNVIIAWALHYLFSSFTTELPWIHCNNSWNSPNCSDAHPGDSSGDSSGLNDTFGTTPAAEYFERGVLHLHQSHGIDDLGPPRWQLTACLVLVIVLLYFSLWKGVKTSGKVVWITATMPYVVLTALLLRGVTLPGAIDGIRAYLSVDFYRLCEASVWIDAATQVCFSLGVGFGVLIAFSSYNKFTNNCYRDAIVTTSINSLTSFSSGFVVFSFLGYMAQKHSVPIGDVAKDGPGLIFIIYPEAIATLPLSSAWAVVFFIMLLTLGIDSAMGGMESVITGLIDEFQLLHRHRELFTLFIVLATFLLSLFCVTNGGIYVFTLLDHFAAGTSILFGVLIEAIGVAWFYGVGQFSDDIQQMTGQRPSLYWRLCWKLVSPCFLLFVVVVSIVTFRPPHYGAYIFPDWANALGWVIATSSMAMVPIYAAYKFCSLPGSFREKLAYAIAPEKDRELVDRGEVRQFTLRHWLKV
Experiment: Inhibitory action on human dopamine transporter ([3H]-dopamine uptake in CHO cells)
Format: cell-based
Details: CHO, compound 1 μM; relative to inhibitory activity of 100 μM Nomifensine as 100%; read-out: inhibitory rate (%)
Counter-ions that a name gives are not always drawn.
Assay Metric: inhibition at 1 µM (%)
A number alone suffices; assume %.

Consider the compound OCCOC[C@@]1(c2ccc(Cl)c(Cl)c2)CCNCCO1 [Example 416, monohydrochloride] and give its measured inhibition at 1 µM.
18

Quick one: CS(=O)(=O)N[C@H]1CNCCO[C@@H]1c1ccc(Cl)c(Cl)c1 [Example 266, monohydrochloride]
76

Quick one: O=C(O)c1ccnn1C[C@@H]1CNCCO[C@H]1c1ccc(Cl)c(Cl)c1 [Example 181, monohydrochloride]
39

Quick one: OC[C@H](O)[C@@H]1OCCNC[C@H]1c1ccc(Cl)c(Cl)c1 [Example 45, monohydrochloride]
52

Quick one: OC[C@@H](O)[C@H]1OCCNC[C@H]1c1ccc(Cl)c(Cl)c1 [Example 579]
49

Quick one: O=c1[nH]nc(-c2cccnc2O[C@@H]2CNCCO[C@H]2c2ccc(Cl)c(F)c2)[nH]1 [Example 558, monohydrochloride]
100

Quick one: OC[C@@H]1OCCNC[C@@H]1c1ccc(Cl)c(Cl)c1 [Example 448, monohydrochloride]
7

Quick one: O=C1CNC(=O)N1C[C@]1(c2ccc(Cl)c(Cl)c2)CCNCCO1 [Example 438, monohydrochloride]
6

Quick one: OCCOC[C@@H]1OCCNC[C@H]1c1ccc(Cl)c(Cl)c1 [Example 496, monohydrochloride]
57

Quick one: CC(=O)[C@@H]1CNCCO[C@H]1c1ccc(Cl)c(Cl)c1 [Example 216, monohydrochloride]
3

Quick one: O=S(=O)(NC[C@H]1OCCNC[C@H]1c1ccc(Cl)c(Cl)c1)C(F)F [Example 470, monohydrochloride]
91

Quick one: O[C@@H]1CNCCO[C@H]1c1ccc(Cl)c(F)c1 [Example 552, monohydrochloride]
1

Quick one: O=C(NC[C@@H]1CNCCO[C@H]1c1ccc(Cl)c(Cl)c1)c1cc(-c2noc(=O)[nH]2)ccn1 [Example 146, monohydrochloride]
47

Quick one: OC[C@@H](O)[C@@H]1OCCNC[C@H]1c1ccc(Cl)c(Cl)c1 [Example 46, monohydrochloride]
27

Quick one: O=c1[nH]c(-c2ccnn(C[C@@H]3CNCCO[C@H]3c3ccc(Cl)c(Cl)c3)c2=O)no1 [Example 209, monohydrochloride]
71
